Data credit: patent US11767295B2

- Test system: DNCB-induced atopic dermatitis in Balb/c mice
- ASSAY_TEXT: Efficacy evaluation test of DNCB-induced atopic dermatitis in Balb/c mice model (Biological Example 1)
- Type: in vivo
- DETAILS: Table 4; Balb/c mice, 1 mg/mouse on ear, BID × 10; 18th day
I'd appreciate it if you could supply Ear Thickness values for the items below.
Could you give me the number in mm? Just the number is fine.

Lab note: measured Ear Thickness of CCOc1cc([C@H](CC(=O)OC)N2C(=O)c3cccc(NC(C)=O)c3C2=O)ccc1OC was 0.44

Lab note: measured Ear Thickness of CCCOC(=O)CC(c1ccc(OC)c(OCC)c1)N1C(=O)c2cccc(NC(C)=O)c2C1=O (stereo not shown) was 0.48

Lab note: measured Ear Thickness of COC(=O)CC(c1ccc(OC)c(OC)c1)N1C(=O)c2cccc(NC(C)=O)c2C1=O (stereo not shown) was 0.58

Lab note: measured Ear Thickness of CCOc1cc(C(CC(=O)OC)N2C(=O)c3cccc(NC(C)=O)c3C2=O)ccc1OC (stereo not shown) was 0.64

====

I'd appreciate it if you could supply Weight Changes of Animals, Day 1 values for the items below.
- System: DNCB-induced atopic dermatitis in Balb/c mice
- ASSAY_TEXT: Efficacy evaluation test of DNCB-induced atopic dermatitis in Balb/c mice model (Biological Example 1)
- Format: in vivo
- DETAILS: Balb/c mice, 1 mg/mouse (50 mg/mL, 20 μL) on ear, BID × 10; Day 1; Mean ± S.D.
Form entry: enter the amount, then its unit.

Lab note: measured Weight Changes of Animals, Day 1 of CCOc1cc(C(CC(=O)OC)N2C(=O)c3cccc(NC(C)=O)c3C2=O)ccc1OC (stereo not shown) [Example 1] was 21.0 ± 0.8 g

Lab note: measured Weight Changes of Animals, Day 1 of COC(=O)CC(c1ccc(OC)c(OC)c1)N1C(=O)c2cccc(NC(C)=O)c2C1=O (stereo not shown) [Example 3] was 20.6 ± 0.8 g

Lab note: measured Weight Changes of Animals, Day 1 of CCCOC(=O)CC(c1ccc(OC)c(OCC)c1)N1C(=O)c2cccc(NC(C)=O)c2C1=O (stereo not shown) [Example 11] was 20.3 ± 1.3 g

Lab note: measured Weight Changes of Animals, Day 1 of CCOc1cc([C@H](CC(=O)OC)N2C(=O)c3cccc(NC(C)=O)c3C2=O)ccc1OC [Example 10] was 20.6 ± 0.8 g

====

I'd appreciate it if you could supply Weight Changes of Animals, Day 1 values for the items below.
- Tested on: DNCB-induced atopic dermatitis in Balb/c mice
- ASSAY_TEXT: Efficacy evaluation test of DNCB-induced atopic dermatitis in Balb/c mice model (Biological Example 2)
- Format: in vivo
- DETAILS: Balb/c mice, 1 mg/mouse (50 mg/mL, 20 μL) on ear, BID × 10; Day 1; Mean ± S.D.
Could you give me the number in g? Just the number is fine.

Lab note: measured Weight Changes of Animals, Day 1 of CCOC(=O)C[C@H](c1ccc(OC)c(OCC)c1)N1C(=O)c2cccc(NC(C)=O)c2C1=O was 21.8

Lab note: measured Weight Changes of Animals, Day 1 of CCOC(=O)C[C@@H](c1ccc(OC)c(OCC)c1)N1C(=O)c2cccc(NC(C)=O)c2C1=O was 21.8

Lab note: measured Weight Changes of Animals, Day 1 of CCOC(=O)CC(c1ccc(OC)c(OCC)c1)N1C(=O)c2cccc(NC(C)=O)c2C1=O (centres unmarked) was 21.4

Lab note: measured Weight Changes of Animals, Day 1 of COC(=O)CC(c1ccc(OC)c(OC(C)C)c1)N1C(=O)c2cccc(NC(C)=O)c2C1=O (centres unmarked) was 21.6

Lab note: measured Weight Changes of Animals, Day 1 of COC(=O)C[C@@H](c1ccc(OC)c(OC(C)C)c1)N1C(=O)c2cccc(NC(C)=O)c2C1=O was 21.6

====

I'd appreciate it if you could supply Ear Swelling Degree values for the items below.
- System: DNCB-induced atopic dermatitis in Balb/c mice
- ASSAY_TEXT: Efficacy evaluation test of DNCB-induced atopic dermatitis in Balb/c mice model (Biological Example 1)
- Format: in vivo
- DETAILS: right minus left ear piece weight (8 mm punch); 1 mg/mouse on ear, BID × 10; 18th day
- Description: 60 healthy male SPF Balb/c mice, each of which the body weight was 19-21 g, were randomly divided into 6 groups by body weight. There were 10 mice in each group. Before the test, the hair around the right ear of the mouse was removed to reduce the interference in the drug adhesion to the hair. The start of the test was recorded as Day 1. The specific time for measuring ear thickness was slightly adjusted based on FIG. 1. […] Differences in the swelling degrees of two ears were calculated. […]
Could you give me the number in mg? Just the number is fine.

Lab note: measured Ear Swelling Degree of CCOc1cc([C@H](CC(=O)OC)N2C(=O)c3cccc(NC(C)=O)c3C2=O)ccc1OC [Example 10] was 13.7

Lab note: measured Ear Swelling Degree of COC(=O)CC(c1ccc(OC)c(OC)c1)N1C(=O)c2cccc(NC(C)=O)c2C1=O (stereo not shown) [Example 3] was 15.7

Lab note: measured Ear Swelling Degree of CCCOC(=O)CC(c1ccc(OC)c(OCC)c1)N1C(=O)c2cccc(NC(C)=O)c2C1=O (stereo not shown) [Example 11] was 12.8

Lab note: measured Ear Swelling Degree of CCOc1cc(C(CC(=O)OC)N2C(=O)c3cccc(NC(C)=O)c3C2=O)ccc1OC (stereo not shown) [Example 1] was 19.9

====

- System: DNCB-induced atopic dermatitis in Balb/c mice
- ASSAY_TEXT: Efficacy evaluation test of DNCB-induced atopic dermatitis in Balb/c mice model (Biological Example 2)
- Format: in vivo
- DETAILS: Balb/c mice, 1 mg/mouse on ear, BID × 10; Day 17; Mean ± S.D.
QUANTITY_NAME: Weight Changes of Animals, Day 17
Form entry: enter the amount, then its unit.

Lab note: measured Weight Changes of Animals, Day 17 of CCOC(=O)C[C@@H](c1ccc(OC)c(OCC)c1)N1C(=O)c2cccc(NC(C)=O)c2C1=O was 24.3 ± 5.6 g

Lab note: measured Weight Changes of Animals, Day 17 of CCOC(=O)CC(c1ccc(OC)c(OCC)c1)N1C(=O)c2cccc(NC(C)=O)c2C1=O (centres unmarked) was 23.3 ± 1.4 g

Lab note: measured Weight Changes of Animals, Day 17 of CCOC(=O)C[C@H](c1ccc(OC)c(OCC)c1)N1C(=O)c2cccc(NC(C)=O)c2C1=O was 23.1 ± 1.1 g

Lab note: measured Weight Changes of Animals, Day 17 of COC(=O)C[C@@H](c1ccc(OC)c(OC(C)C)c1)N1C(=O)c2cccc(NC(C)=O)c2C1=O was 23.3 ± 1.2 g

Lab note: measured Weight Changes of Animals, Day 17 of COC(=O)CC(c1ccc(OC)c(OC(C)C)c1)N1C(=O)c2cccc(NC(C)=O)c2C1=O (centres unmarked) was 23.0 ± 0.7 g

====

- Test system: DNCB-induced atopic dermatitis in Balb/c mice
- ASSAY_TEXT: Efficacy evaluation test of DNCB-induced atopic dermatitis in Balb/c mice model (Biological Example 1)
- Format: in vivo
- DETAILS: Balb/c mice, 1 mg/mouse on ear, BID × 10; Day 17; Mean ± S.D.
QUANTITY_NAME: Weight Changes of Animals, Day 17 (g)
Could you give me the number in g? Just the number is fine.

Lab note: measured Weight Changes of Animals, Day 17 of CCCOC(=O)CC(c1ccc(OC)c(OCC)c1)N1C(=O)c2cccc(NC(C)=O)c2C1=O (stereo not shown) [Example 11] was 21.2

Lab note: measured Weight Changes of Animals, Day 17 of CCOc1cc(C(CC(=O)OC)N2C(=O)c3cccc(NC(C)=O)c3C2=O)ccc1OC (stereo not shown) [Example 1] was 21.9

Lab note: measured Weight Changes of Animals, Day 17 of COC(=O)CC(c1ccc(OC)c(OC)c1)N1C(=O)c2cccc(NC(C)=O)c2C1=O (stereo not shown) [Example 3] was 22.1

Lab note: measured Weight Changes of Animals, Day 17 of CCOc1cc([C@H](CC(=O)OC)N2C(=O)c3cccc(NC(C)=O)c3C2=O)ccc1OC [Example 10] was 21.8

====

- System: DNCB-induced atopic dermatitis in Balb/c mice
- ASSAY_TEXT: Efficacy evaluation test of DNCB-induced atopic dermatitis in Balb/c mice model (Biological Example 2)
- Format: in vivo
- DETAILS: Balb/c mice, 1 mg/mouse on ear, BID × 10; Day 10; Mean ± S.D.
QUANTITY_NAME: Weight Changes of Animals, Day 10 (g)
Could you give me the number in g? Just the number is fine.

Lab note: measured Weight Changes of Animals, Day 10 of COC(=O)CC(c1ccc(OC)c(OC(C)C)c1)N1C(=O)c2cccc(NC(C)=O)c2C1=O (centres unmarked) was 22.6

Lab note: measured Weight Changes of Animals, Day 10 of CCOC(=O)C[C@@H](c1ccc(OC)c(OCC)c1)N1C(=O)c2cccc(NC(C)=O)c2C1=O was 22.6

Lab note: measured Weight Changes of Animals, Day 10 of CCOC(=O)C[C@H](c1ccc(OC)c(OCC)c1)N1C(=O)c2cccc(NC(C)=O)c2C1=O was 22.8

Lab note: measured Weight Changes of Animals, Day 10 of COC(=O)C[C@@H](c1ccc(OC)c(OC(C)C)c1)N1C(=O)c2cccc(NC(C)=O)c2C1=O was 22.6

Lab note: measured Weight Changes of Animals, Day 10 of CCOC(=O)CC(c1ccc(OC)c(OCC)c1)N1C(=O)c2cccc(NC(C)=O)c2C1=O (centres unmarked) was 22.8
